Target: GST tagged LXRalpha LBD (ligand binding domain) (Homo sapiens)
Sequence (Q13133 209-447 limits assumed): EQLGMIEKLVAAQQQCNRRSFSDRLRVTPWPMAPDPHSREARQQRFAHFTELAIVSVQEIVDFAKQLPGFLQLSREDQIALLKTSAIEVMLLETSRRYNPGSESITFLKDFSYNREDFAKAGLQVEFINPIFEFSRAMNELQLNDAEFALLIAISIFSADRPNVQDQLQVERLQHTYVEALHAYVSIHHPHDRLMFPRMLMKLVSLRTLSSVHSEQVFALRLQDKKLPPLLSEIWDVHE
Assay: LanthaScreen TR-FRET Liver X Receptor Coactivator Assay, LXR alpha-LBD
Settings: Inflection Point (potency), co-activator recruitment, relative to reference T0901317; read-out: LXR alpha IP
readout: log10 of EC50 (log10 of the value in µM)
Form field - Quantity: EC50; Unit: µM; Scale: log10

# `CN(C)C(=O)c1ccc(N2CCC(C3CCN(C(=O)[C@@](C)(O)c4ccccc4)CC3)CC2)cc1Cl` with GST tagged LXRalpha LBD (ligand binding domain) (Homo sapiens): log10 of EC50 is 0.51

# CC(C)C(O)(C(=O)N1CCC(C2CCN(c3ccc(C(N)=O)c(Cl)c3)CC2)CC1)C(F)(F)F (stereo not shown) with GST tagged LXRalpha LBD (ligand binding domain) (Homo sapiens): log10 of EC50 is -0.74

# `CN(C)C(=O)c1ccc(N2CCC(C3CCN(C(=O)C4(c5ccccc5F)CCCC4)CC3)CC2)cc1Cl` with GST tagged LXRalpha LBD (ligand binding domain) (Homo sapiens): log10 of EC50 is -0.24

# `CN(Cc1ccon1)C(=O)c1ccc(N2CCC(C3CCN(C(=O)[C@](O)(c4ccccc4)C(F)(F)F)CC3)CC2)cc1Cl` with GST tagged LXRalpha LBD (ligand binding domain) (Homo sapiens): log10 of EC50 is 0.15

# `CN(C)C(=O)c1ccc(N2CCC(C3CCN(C(=O)C4(c5ccccc5)CCC4)CC3)CC2)nc1Cl` with GST tagged LXRalpha LBD (ligand binding domain) (Homo sapiens): log10 of EC50 is 0.09

# `Cc1ccc(C2(C(=O)N3CCC(C4CCN(c5ccc(C(=O)N(C)C)c(Cl)c5)CC4)CC3)CCC2)cc1` with GST tagged LXRalpha LBD (ligand binding domain) (Homo sapiens): log10 of EC50 is 0.10

# CN(C)C(=O)c1ccc(N2CCC(C3CCN(C(=O)C(O)(C(C)(C)C)C(F)(F)F)CC3)CC2)cc1Cl (single isomer, unassigned) [Example A-7] with GST tagged LXRalpha LBD (ligand binding domain) (Homo sapiens): log10 of EC50 is 0.15

###

Target: GST tagged LXRbeta LBD (ligand binding domain) (Homo sapiens)
Construct: purchased Invitrogen pv4658.pps
Sequence (P55055 222-460 limits assumed): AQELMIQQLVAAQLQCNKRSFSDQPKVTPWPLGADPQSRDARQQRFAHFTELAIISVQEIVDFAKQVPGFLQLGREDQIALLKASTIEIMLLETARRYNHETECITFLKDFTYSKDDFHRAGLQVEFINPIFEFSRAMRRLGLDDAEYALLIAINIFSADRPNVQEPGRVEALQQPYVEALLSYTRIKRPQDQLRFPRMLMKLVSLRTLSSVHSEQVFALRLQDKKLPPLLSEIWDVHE
Test: LanthaScreen TR-FRET Liver X Receptor Coactivator Assay, LXR beta-LBD
Type: biochemical
Conditions: activity at max dose (efficacy), relative to reference T0901317; read-out: LXR beta act @ max dose (%)
readout: Emax

Answered cases to consult:
[
  {
    "compound": "CN(C)C(=O)c1ccc(N2CCC(C3CCN(C(=O)[C@@](O)(c4ccccc4)C(F)(F)C(F)(F)F)CC3)CC2)nc1Cl (single isomer, unassigned) [Example B-17]",
    "Emax": "130%"
  },
  {
    "compound": "CC[C@](O)(C(=O)N1CCC(C2CCN(c3ccc(C(=O)N(C)C)c(Cl)c3)CC2)CC1)C(F)(F)F (single isomer, unassigned) [Example A-42]",
    "Emax": "117%"
  },
  {
    "compound": "COc1cccc(C2(C(=O)N3CCC(C4CCN(c5ccc(C(=O)N(C)C)c(Cl)c5)CC4)CC3)CCCC2)c1 [Example A-78]",
    "Emax": "81%"
  },
  {
    "compound": "C=C(C)CC(O)(C(=O)N1CCC(C2CCN(c3ccc(C(=O)N(C)C)c(Cl)c3)CC2)CC1)C(F)(F)F (stereo not shown) [Example A-56]",
    "Emax": "120%"
  },
  {
    "compound": "CN(C)C(=O)c1ccc(N2CCC(C3CCN(C(=O)c4c(F)cccc4F)CC3)CC2)nc1Cl [Example B-8]",
    "Emax": "95%"
  },
  {
    "compound": "CC(C)[C@](O)(C(=O)N1CCC(C2CCN(c3ccc(C(=O)N(C)C)c(Cl)c3)CC2)CC1)C(F)(F)F (single isomer, unassigned) [Example A-3]",
    "Emax": "103%"
  },
  {
    "compound": "CC(C)(C)OC(=O)NC1CN(C(=O)c2ccc(N3CCC(C4CCN(C(=O)[C@](O)(c5ccccc5)C(F)(F)C(F)(F)F)CC4)CC3)cc2Cl)C1 [Example E-65]",
    "Emax": "137%"
  },
  {
    "compound": "CN(C)C(=O)c1ccc(N2CCC(C3CCN(C(=O)C(O)(C(C)(C)C)C(F)(F)F)CC3)CC2)cc1Cl (single isomer, unassigned) [Example A-6]",
    "Emax": "107%"
  }
]

# CN(C)C(=O)c1ccc(N2CCC(C3CCN(C(=O)C4(c5cc(F)cc(F)c5)CCCC4)CC3)CC2)cc1Cl [Example A-79] with GST tagged LXRbeta LBD (ligand binding domain) (Homo sapiens): Emax is 125%

# CN(C)C(=O)c1ccc(N2CCC(C3CCN(C(=O)C4(c5ccccc5)CC4)CC3)CC2)cc1Cl [Example A-39] with GST tagged LXRbeta LBD (ligand binding domain) (Homo sapiens): Emax is 101%

# O=C(c1ccc(N2CCC(C3CCN(C(=O)[C@](O)(c4ccccc4)C(F)(F)C(F)(F)F)CC3)CC2)cc1Cl)N1CCC[C@H]1CO [Example E-66] with GST tagged LXRbeta LBD (ligand binding domain) (Homo sapiens): Emax is 126%

# CC(C)CC(O)(C(=O)N1CCC(C2CCN(c3ccc(C(=O)N(C)C)c(Cl)n3)CC2)CC1)C(F)(F)F (stereo not shown) [Example B-7] with GST tagged LXRbeta LBD (ligand binding domain) (Homo sapiens): Emax is 127%

# O=C(c1ccc(N2CCC(C3CCN(C(=O)[C@](O)(c4ccccc4)C(F)(F)F)CC3)CC2)cc1Cl)N1CC(c2cccnc2)C1 [Example E-43] with GST tagged LXRbeta LBD (ligand binding domain) (Homo sapiens): Emax is 50%

###

Target: GST tagged LXRbeta LBD (ligand binding domain) (Homo sapiens, UniProt P55055)
Assay: LanthaScreen TR-FRET Liver X Receptor Coactivator Assay, LXR beta-LBD
Settings: Inflection Point (potency), co-activator recruitment, relative to reference T0901317; read-out: LXR beta IP
readout: EC50 (nM)
Lab book: enter the figure in nM, no units written.

Lab book: EC50 of CC(C)S(=O)(=O)c1ccc(N2CCC(C3CCN(C(=O)[C@](O)(c4ccccc4)C(F)(F)F)CC3)CC2)cc1Cl [Example D-5] noted as 418

Lab book: EC50 of CN(C)C(=O)c1ccc(N2CCC(C3CCN(C(=O)C4(c5ccccc5)CCC4)CC3)CC2)nc1Cl [Example B-14] noted as 73

Lab book: EC50 of COc1cccc([C@@](O)(C(=O)N2CCC(C3CCN(c4ccc(C(=O)N(C)C)c(Cl)c4)CC3)CC2)C(F)(F)F)c1 (single isomer, unassigned) [Example A-65] noted as 119

Lab book: EC50 of CN(C)C(=O)c1ccc(N2CCC(C3CCN(S(=O)(=O)c4c(Cl)cccc4C(F)(F)F)CC3)CC2)cc1Cl [Example A-105] noted as 55

Lab book: EC50 of CN(C)C(=O)c1ccc(N2CCC(C3CCN(C(=O)c4ccccc4C(F)(F)F)CC3)CC2)cc1Cl [Example A-21] noted as 243

Lab book: EC50 of O=C(c1ccc(N2CCC(C3CCN(C(=O)[C@](O)(c4ccccc4)C(F)(F)F)CC3)CC2)cc1Cl)N1CC(F)(F)C1 [Example E-34] noted as 450

Lab book: EC50 of CN(Cc1ccon1)C(=O)c1ccc(N2CCC(C3CCN(C(=O)c4c(F)cccc4F)CC3)CC2)cc1Cl [Example E-16] noted as 137

###

Target: GST tagged LXRalpha LBD (ligand binding domain) (Homo sapiens)
Construct: purchased Invitrogen pv4655
Assay: LanthaScreen TR-FRET Liver X Receptor Coactivator Assay, LXR alpha-LBD
Type: biochemical
Settings: activity at max dose (efficacy), relative to reference T0901317
Attribute: LXR alpha act @ max dose (%)
Lab book: enter the figure in %, no units written.

[
  {
    "compound": "CC(C)CC(O)(C(=O)N1CCC(C2CCN(c3ccc(C(=O)N(C)C)c(Cl)c3)CC2)CC1)C(F)(F)F (stereo not shown) [Example A-89]",
    "readout.value": 36
  },
  {
    "compound": "CCCC(O)(C(=O)N1CCC(C2CCN(c3ccc(C(=O)N(C)C)c(Cl)c3)CC2)CC1)C(F)(F)F (stereo not shown) [Example A-84]",
    "readout.value": 63
  },
  {
    "compound": "CN(C)C(=O)c1ccc(N2CCC(C3CCN(C(=O)C(O)(c4ccccc4)C(F)(F)C(F)(F)C(F)(F)F)CC3)CC2)cc1Cl (stereo not shown) [Example A-55]",
    "readout.value": 25
  }
]

Read the next record carefully.
Lab book: LXR alpha act @ max dose (%) of COc1cccc(C(O)(C(=O)N2CCC(C3CCN(c4ccc(C(=O)N(C)C)c(Cl)c4)CC3)CC2)C(F)(F)C(F)(F)F)c1 (stereo not shown) [Example A-85] noted as 41
